- Tested on: OVCAR-8 ovarian
- MEASUREMENT_PROTOCOL: NCI tumour cell line growth inhibition, 48 h
OUTCOME_MEASURE: TGI

compound=CC(=O)O[C@H]1C[C@H]2[C@@H]([C@H](OC(C)=O)C[C@@H]3CC4(CC[C@@]32C)OOC2(CCCCC2)OO4)[C@@H]2CC[C@H]([C@H](C)CCC(N)=O)[C@@]12C outcome_measure=TGI value_observed="9.87 µM"
compound=COc1cc2c(cc1OCCCOc1cc3c(cc1OC)C(=O)N1CC(F)(F)C[C@H]1C=N3)N=C[C@@H]1CC(F)(F)CN1C2=O outcome_measure=TGI value_observed="9.16 µM"
compound=COC(=O)c1c(O)ccc2c1c1cc3ccccc3c(O)c1n2Cc1ccccc1Cl outcome_measure=TGI value_observed="> 100 µM"
compound="CC(=O)N(CN1C(=O)CCC1C(=O)O)c1ccc(C)cc1 (stereo not given)" outcome_measure=TGI value_observed="> 100 µM"
compound=COc1cccc(-c2cc(C(=O)Nc3ccc(Cl)cc3)nc(N)n2)c1 outcome_measure=TGI value_observed="> 100 µM"
compound=Nc1nc(=O)c2[nH]cnc2n1O outcome_measure=TGI value_observed="> 100 µM"
compound=CCc1cc(C)cc2[n+]1CC=C2C outcome_measure=TGI value_observed="> 100 µM"
compound=COc1ccc(NC(=O)COc2ccccc2)c(C(N)=O)c1 outcome_measure=TGI value_observed="> 100 µM"
compound=COc1cc(/C=C2/CCCc3ccccc3C2=O)cc(OC)c1OC outcome_measure=TGI value_observed="> 69.8 µM"
compound="S=P(C1CCCCC1)(C1CCCCC1)C(c1cccnc1)N1CCCC1 (stereo not given)" outcome_measure=TGI value_observed="51.7 µM"
